Experiment: compounds altering viability of human ES cells (AID 493140);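 also: cells exposed to compounds for four days before counting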
Conditions: human embryonic stem cell survival screen; stronger effect = higher value
The reader will find reported survival values listed item by item below.
Answer field: number only, no words.

Recorded survival, per entry:
Compound: COc1ccccc1OCC(O)CO (stereo unspecified)
Experimental readout: survival
Observed value: 4.75

Compound: CN1CCN(CC(=O)N2c3ccccc3C(=O)Nc3cccnc32)CC1
Experimental readout: survival
Observed value: 8.33

Compound: Cc1ccccc1OCC(O)CO (stereo unspecified)
Experimental readout: survival
Observed value: 11.9

Quote survival reported for Cc1ncc([N+](=O)[O-])n1CCO please.
10.8

Answer with the recorded survival of Nc1nc2c(ncn2COC(CO)CO)c(=O)[nH]1 only.
3.83

Give a short answer stating reported survival for CCOC(=O)OC(C)OC(=O)[C@@H]1N2C(=O)[C@@H](NC(=O)[C@H](N)c3ccccc3)[C@H]2SC1(C)C (stereo partly specified) .
16.9

----------
Test system: R275C
Experiment: BK channel mutant inhibitors and activators – cell-based, U2OS BacMam, thallium flux, beta subunits, selectivity assay, profiling panel (AID 1259406);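 also: initial slope of Thallos dye fluorescence rise after thallium is added; log ratio against the mean of 0.3% DMSO vehicle wells on the same plate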
Conditions: U2OS BacMam BK variants, at 30 µM
Overview of reported log fold change Tl+ flux across a group of compounds:
In your answer, state the number alone without any accompanying words.

Consider the reported log fold change Tl+ flux for these compounds:
Compound: COc1cc(C)nc(-n2nc(C)cc2OC)n1
log fold change Tl+ flux: 0.031

Compound: CC(=O)NS(=O)(=O)c1ccc(N)cc1
log fold change Tl+ flux: 0.0168

Compound: CCCc1nc(C)c2c(=O)[nH]c(-c3cc(S(=O)(=O)N4CCN(CC)CC4)ccc3OCC)nn12
log fold change Tl+ flux: -0.0462

Compound: c1cnc(N2CCN(Cc3ccc4c(c3)OCO4)CC2)nc1
log fold change Tl+ flux: -0.0353

Compound: N#Cc1ccc(C(c2ccc(C#N)cc2)n2cncn2)cc1
log fold change Tl+ flux: -0.0506

Compound: C[C@@H]1CN(CCCn2c3ccccc3c3ccccc32)C[C@H](C)N1
log fold change Tl+ flux: 0.377

Name the recorded log fold change Tl+ flux of the item COc1cc(C(=O)NC2CCCNC2)cc(OC)c1OC (configuration not stated) in your answer.
-0.0701

Item CN1CCN(c2c(F)cc3c(=O)c(C(=O)O)cn4c3c2SCC4)CC1 : provide log fold change Tl+ flux
-0.068

Given the compound O=C1N(c2ccccc2)c2ccccc2C1(Cc1ccncc1)Cc1ccncc1 , write its reported log fold change Tl+ flux.
-0.00568

Supply reported log fold change Tl+ flux belonging to this compound: O=C1CC2(CCCC2)CC(=O)N1CCCCN1CCN(c2ncccn2)CC1
0.00417

Supply measured log fold change Tl+ flux of COc1ccc2nc(S(=O)Cc3ncc(C)c(OC)c3C)[nH]c2c1 (configuration not stated) in your reply.
0.00389

Please look at this compound and report its log fold change Tl+ flux: CCN(CC)CC1CCCCN1CC(=O)N1c2ccccc2C(=O)Nc2cccnc21 (configuration not stated)
-0.0778

Return log fold change Tl+ flux (reported value) for this compound: CCC(=O)O[C@]1(C(=O)SCF)[C@H](C)C[C@H]2[C@@H]3C[C@H](F)C4=CC(=O)C=C[C@]4(C)[C@@]3(F)[C@@H](O)C[C@@]21C
-0.00436

Query log fold change Tl+ flux for Cn1nnc2c(C(N)=O)ncn2c1=O
-0.00524

Identify measured log fold change Tl+ flux associated with C[C@@H]1C[C@H]2[C@@H]3CCC4=CC(=O)C=C[C@]4(C)[C@@]3(F)[C@@H](O)C[C@]2(C)[C@H]1C(=O)CO
-0.061

Using known records, supply log fold change Tl+ flux for C[C@]12C[C@H](O)[C@H]3[C@@H](CCC4=CC(=O)CC[C@@]43C)[C@@H]1CC[C@@H]2C(=O)CO
-0.04

Answer with the recorded log fold change Tl+ flux for the compound listed here: Nc1nc(F)nc2c1ncn2[C@@H]1O[C@H](CO)[C@@H](O)[C@@H]1O
-0.0205

Provide only the value of recorded log fold change Tl+ flux for NC1CCN(c2nc3c(cc2F)c(=O)c(C(=O)O)cn3-c2ccc(F)cc2F)C1 (configuration not stated)
-0.0155

Tell us which log fold change Tl+ flux value is on record for CC(C)(C#N)c1cc(Cn2cncn2)cc(C(C)(C)C#N)c1
-0.0232

For COCc1c(C(C)C)nc(C(C)C)c(/C=C/[C@@H](O)C[C@@H](O)CC(=O)O)c1-c1ccc(F)cc1 , write its log fold change Tl+ flux.
0.0107

Please list log fold change Tl+ flux recorded for the compound O=C(c1ccc(F)cc1)C1CCN(CCn2c(=S)[nH]c3ccccc3c2=O)CC1
0.0338

Determine from records and report log fold change Tl+ flux for CC(C)(C(=O)c1cccnc1)c1cccnc1
-0.0634

Let me know recorded log fold change Tl+ flux for CCN(CC)CCNC(=O)c1cc(Cl)c(N)cc1OC , thanks.
0.0337

// Input: C[C@@H]1C[C@H]2[C@@H]3C[C@H](F)C4=CC(=O)C(Cl)=C[C@]4(C)[C@@]3(F)[C@@H](O)C[C@]2(C)[C@@]1(O)C(=O)CO . Output its log fold change Tl+ flux only.
0.0158

Identify log fold change Tl+ flux associated with the compound O=C(O)CCNC(=O)c1ccc(N=Nc2ccc(O)c(C(=O)O)c2)cc1
-0.0367

Item COc1ccc(CC2c3cc(OC)c(OC)cc3CC[N+]2(C)CCC(=O)OCCCCCOC(=O)CC[N+]2(C)CCc3cc(OC)c(OC)cc3C2Cc2ccc(OC)c(OC)c2)cc1OC (configuration not stated) : provide log fold change Tl+ flux
-0.0147

Answer with reported log fold change Tl+ flux of O=C1CCc2ccc(OCCCCN3CCN(c4cccc(Cl)c4Cl)CC3)cc2N1
-0.0555

Let me know recorded log fold change Tl+ flux for COc1ccccc1N1CCN(CC(O)COc2cccc3ccccc23)CC1 (configuration not stated) , thanks.
-0.067

In one line, give reported log fold change Tl+ flux of the entry Nc1nc(N)nc(-c2cc(Cl)ccc2Cl)n1 .
-0.0835

Look up log fold change Tl+ flux of COC(=O)C1=C(C)NC(C)=C(C(=O)O[C@@H]2CCCN(Cc3ccccc3)C2)[C@@H]1c1cccc([N+](=O)[O-])c1 and report it.
-0.0526
